Test: NOD1 signaling inhibitors, primary screen, cell-based, luminescence, uHTS (AID 1578);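 further: HEK-293T reporter cells stimulated with the NOD1 agonist gamma-tri-DAP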
Details: NOD1-driven NF-kB luciferase reporter cells, at 4 µM, stronger effect = higher value
The whole screen tested about 290,000 compounds, of which about 3,000 (1%) were called active. Shown is part of a subset that was picked to be rich in actives.
METRIC NAME: inhibition

>  <COMPOUND>
O=c1cc(C(F)(F)F)[nH]c(=S)n1-c1ccccc1

>  <inhibition>
-3.4% (inactive)

$$$$
>  <COMPOUND>
CC(C)Oc1cccc(C(=O)C2CCCN(Cc3cnn(C(C)C)c3)C2)c1 (stereo unspecified)

>  <inhibition>
-18.3% (inactive)

$$$$
>  <COMPOUND>
COc1ccc(CN2CCCC(C(=O)c3ccc(Cl)cc3)C2)cc1Cn1cccn1 (stereo unspecified)

>  <inhibition>
-12.4% (inactive)

$$$$

Look at each compound and report its inhibition.
1. NC(=O)C(C(=O)/C=C/c1ccc(Cl)cc1)=C1SCCS1
2. O=C(c1ccc(Cl)cc1)C1CCCN(Cc2ccc(Oc3ncccn3)cc2)C1 (stereo unspecified)
3. Cc1ccc2[nH]c(=O)c3cc(C(=O)NC(C)C)sc3c2c1
4. CC(=O)Nc1ccc(NC(=O)CSc2nnc(NC(=O)C3CC3)s2)cc1
5. COc1ccc(/C=N/NC(=O)CSc2ccccc2)cc1OC
6. COc1ccc(OC)c(NC(=O)c2nnn(Cc3ccccc3C)c2N)c1
7. Cc1nc(-c2nc(-c3c(C(=O)NN)noc3C)cs2)cs1

["60.5% (active)", "19.6% (inactive)", "-4.6% (inactive)", "-6.1% (inactive)", "-7.9% (inactive)", "-33.8% (inactive)", "-35.9% (inactive)"]

What value of inhibition has been reported for the following compound? COc1ccc(CN2CCNC(=O)C2CC(=O)NCCc2cnccn2)cc1C (stereo unspecified)
-22.4% (inactive)
